Target: GluClβ with α signal peptide, T6′S, Y156TAG Phe (Caenorhabditis elegans, UniProt Q17328, T283S/Y182F)
Sequence (Q17328 23-434 Y182F/T283S): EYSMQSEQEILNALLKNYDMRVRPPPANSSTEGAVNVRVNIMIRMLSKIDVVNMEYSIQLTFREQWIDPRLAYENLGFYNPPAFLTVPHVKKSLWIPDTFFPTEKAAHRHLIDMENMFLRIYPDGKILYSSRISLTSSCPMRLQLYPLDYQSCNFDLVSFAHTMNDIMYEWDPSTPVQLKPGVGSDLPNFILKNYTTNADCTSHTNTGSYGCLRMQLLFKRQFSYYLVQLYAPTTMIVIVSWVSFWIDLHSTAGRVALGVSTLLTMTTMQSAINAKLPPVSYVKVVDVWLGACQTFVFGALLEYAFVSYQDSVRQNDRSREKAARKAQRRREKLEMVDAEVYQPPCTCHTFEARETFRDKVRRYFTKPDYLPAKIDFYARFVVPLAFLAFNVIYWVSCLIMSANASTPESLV
Test: two-electrode voltage clamp, Xenopus laevis oocytes, nonsense suppression
Settings: glutamate
readout-type: pEC50
pEC50 here is simply -log10 of the concentration when that concentration is written in mol/L.

Specify pEC50 for N[C@@H](CCC(=O)O)C(=O)O [glutamate] and stop.
1.77

----------
target: GluClβ A20′T (Caenorhabditis elegans, UniProt Q17328, A297T); test: two-electrode voltage clamp, Xenopus laevis oocytes; conditions: glutamate
readout-type: EC50 (µM)
Report the value in µM with no unit label.

Specify EC50 for N[C@@H](CCC(=O)O)C(=O)O [glutamate] and stop.
110

----------
target: GluClβ T6′S, Q174A (Caenorhabditis elegans, UniProt Q17328, Q200A/T283S); test: two-electrode voltage clamp, Xenopus laevis oocytes; conditions: glutamate
readout-type: pEC50
pEC50 here is simply -log10 of the concentration when that concentration is written in mol/L.

Specify pEC50 for N[C@@H](CCC(=O)O)C(=O)O [glutamate] and stop.
3.96

----------
Target: GluClβ T6′S, Y206TAG Phe (Caenorhabditis elegans, UniProt Q17328, T283S/Y232F)
Sequence (Q17328 23-434 Y232F/T283S): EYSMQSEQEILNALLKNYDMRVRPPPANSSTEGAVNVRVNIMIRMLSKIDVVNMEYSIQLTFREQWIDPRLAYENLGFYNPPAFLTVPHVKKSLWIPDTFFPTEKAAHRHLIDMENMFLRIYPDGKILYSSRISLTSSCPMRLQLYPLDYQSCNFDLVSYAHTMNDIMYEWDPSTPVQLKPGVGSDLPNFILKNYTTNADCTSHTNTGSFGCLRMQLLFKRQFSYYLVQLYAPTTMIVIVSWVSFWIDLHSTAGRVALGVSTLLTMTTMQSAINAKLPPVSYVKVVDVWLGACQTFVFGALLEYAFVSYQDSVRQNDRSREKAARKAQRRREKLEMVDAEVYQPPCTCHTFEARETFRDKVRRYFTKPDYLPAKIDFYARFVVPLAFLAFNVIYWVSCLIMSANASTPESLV
Assay: two-electrode voltage clamp, Xenopus laevis oocytes, nonsense suppression
Conditions: glutamate
readout-type: EC50 (µM)
Report the value in µM with no unit label.

Specify EC50 for N[C@@H](CCC(=O)O)C(=O)O [glutamate] and stop.
160

----------
Biological target: GluClβ T6′S, S126A (Caenorhabditis elegans, UniProt Q17328, S152A/T283S)
Sequence (Q17328 23-434 S152A/T283S): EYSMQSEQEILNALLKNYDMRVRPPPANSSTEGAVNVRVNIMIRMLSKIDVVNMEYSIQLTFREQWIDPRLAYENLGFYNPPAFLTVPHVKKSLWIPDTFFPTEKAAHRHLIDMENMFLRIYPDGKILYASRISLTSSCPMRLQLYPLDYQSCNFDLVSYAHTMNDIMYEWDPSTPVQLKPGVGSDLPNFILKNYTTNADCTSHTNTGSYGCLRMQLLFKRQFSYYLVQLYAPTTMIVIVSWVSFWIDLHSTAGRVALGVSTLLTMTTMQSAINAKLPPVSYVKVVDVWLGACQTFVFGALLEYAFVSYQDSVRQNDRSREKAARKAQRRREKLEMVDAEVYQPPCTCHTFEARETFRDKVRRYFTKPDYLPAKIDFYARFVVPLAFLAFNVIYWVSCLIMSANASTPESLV
Experiment: two-electrode voltage clamp, Xenopus laevis oocytes
Conditions: glutamate
readout-type: EC50 (mM)
Report the value in mM with no unit label.

With GluClβ T6′S, S126A (Caenorhabditis elegans, UniProt Q17328, S152A/T283S) as the test system, provide measured EC50 for this compound: N[C@@H](CCC(=O)O)C(=O)O [glutamate]
4.7

----------
biological target: GluClβ A2′S (Caenorhabditis elegans, UniProt Q17328, A279S); assay: two-electrode voltage clamp, Xenopus laevis oocytes; settings: glutamate
readout-type: EC50

With GluClβ A2′S (Caenorhabditis elegans, UniProt Q17328, A279S) as the test system, provide measured EC50 for this compound: N[C@@H](CCC(=O)O)C(=O)O [glutamate]
630 µM
